- System: TGF-β
- procedure.text: AlphaScreen SureFire p-SMAD3 (Ser423/425) assay, TGF-β-stimulated cells
- Assay type: cell-based
- condition.set: read-out: TGF-β: inhibition of TGF-β signaling, TGF-β pSMAD (MPC-11), p-SMAD3 (Ser423/425) AlphaScreen in cell lysate, TGF-β stimulation
measure.name: IC50

Request: Looking for the measured IC50 of Cc1cc(-c2nc3n(c2-c2ccc4nccnc4c2)CCC3)c(Cl)cc1F [Compound 318] , can you help?
Result: 100 to 1000 nM

====

- System: TGF-β
- procedure.text: AlphaScreen SureFire p-SMAD3 (Ser423/425) assay, TGF-β-stimulated cells
- Assay type: cell-based
- condition.set: Mus musculus; p-SMAD3 (Ser423/425) AlphaScreen in cell lysate; MPC-11; TGF-β stimulation; read-out: TGF-β: inhibition of TGF-β signaling, TGF-β pSMAD (MPC-11)
# reported IC50; entries follow

Solved cases below.
- molecule: "Fc1cc(F)c(-c2nc3occn3c2-c2ccc3nccnc3c2)cc1F [Compound 149]"
  result: "0.05 to 0.1 µM"
- molecule: "COCCOc1cnc2ccc(-c3c(-c4cc(F)c(F)cc4F)nc4n3CCN4)cc2n1 [Compound 115]"
  result: "0.1 to 1 µM"
- molecule: "Fc1ccc(F)c(-c2nc3n(c2-c2ccc4[nH]ncc4c2)CCC3)c1F [Compound 221]"
  result: "> 1 µM"
- molecule: "Fc1cc(-c2nc3n(c2-c2ccc4[nH]ncc4c2)CCC3)c(F)cc1Cl [Compound 239]"
  result: "> 1 µM"
- molecule: "Cc1ccccc1-c1nc2n(c1-c1ccc3[nH]ncc3c1)CCC2 [Compound 304]"
  result: "> 1 µM"
- molecule: "Cc1cc(-c2nc3n(c2-c2ccc4ncccc4c2)CCC3)cc(Cl)c1F [Compound 275]"
  result: "> 1 µM"

Request: Looking for the measured IC50 of Cc1cc(-c2nc3n(c2-c2ccc4nccnc4c2)CCC3)c(F)cc1F [Compound 270] , can you help?
Result: 0.05 to 0.1 µM

Request: Looking for the measured IC50 of Cc1cc(-c2nc3n(c2-c2ccc4ncnn4c2)CCC3)c(F)cc1F [Compound 38] , can you help?
Result: < 0.05 µM

Request: Looking for the measured IC50 of Cc1cc(-c2nc3n(c2-c2ccc4nccn4c2)CCC3)cc(Cl)c1F [Compound 41] , can you help?
Result: > 1 µM
